study system: WEE1 (Homo sapiens, UniProt P30291+Q96SW2)
Construct: C-terminal ePL-tagged (DiscoverX, Fremont, CA) full-length WEE1 expression construct; expressed in transfected cells; host or cells: LentiX-HEK293T (Invitrogen), lentiviral transduction; co-expressing GSPT1-GN (G576N, lacking the first 158 amino acids)
experimental details: WEE1-ePL degradation assay (LentiX-WEE1-ePL-GSPT1-ND cells, InCELL Hunter luminescence, 4 h)
Assay type: cell-based
assay setup: 293T-LentiX WEE1-ePL cells, read-out: 293T-LentiX WEE1-ePL Degradation 4 hr (EC50)
API: label(entry) gives 1 (yes) if the entry's DC50 is strictly smaller than 5 nM; on equality or larger values it gives 0 (no).

Look over these answered cases.
- compound: "C#Cc1ccc2cc(CN3CC[C@H](Oc4ccc5c(c4)CN(C4CCC(=O)NC4=O)C5=O)C3)ccc2n1 (stereo partly shown)"
  class name: "1 (yes)"
- compound: "O=C1CCC(N2Cc3cc(O[C@H]4CCN(Cc5ccc6c(c5)CCCN6)C4)ccc3C2=O)C(=O)N1 (stereo partly shown)"
  class name: "0 (no)"
- compound: "O=C1CCC(N2Cc3cc(O[C@H]4CCN(Cc5cncc6c5CCCO6)C4)ccc3C2=O)C(=O)N1 (stereo partly shown)"
  class name: "0 (no)"

Qu. # TODO verify DC50 < 5 nM strictly for this compound: Cc1ncc2cc(CN3CC[C@H](Oc4ccc5c(c4)CN(C4CCC(=O)NC4=O)C5=O)C3)ccc2n1 (stereo partly shown)
Ans. 0 (no)

Qu. # TODO verify DC50 < 5 nM strictly for this compound: O=C1CCC(N2Cc3cc(O[C@H]4CCN(Cc5ccc6ncc(C(F)(F)F)cc6c5)C4)ccc3C2=O)C(=O)N1 (stereo partly shown)
Ans. 1 (yes)

Qu. # TODO verify DC50 < 5 nM strictly for this compound: O=C1CCC(N2Cc3cc(O[C@H]4CCN(Cc5ccc6nc(N7[C@@H]8CC[C@H]7COC8)ncc6c5)C4)ccc3C2=O)C(=O)N1 (stereo partly shown)
Ans. 0 (no)

Qu. # TODO verify DC50 < 5 nM strictly for this compound: Cc1cccc2cnc(CN3CC[C@H](Oc4ccc5c(c4)CN(C4CCC(=O)NC4=O)C5=O)C3)cc12 (stereo partly shown)
Ans. 1 (yes)

These measurements were taken from patent US20240067632A1.
